Value source: patent US10597674B2

Please respond with reported Residual activity for every item in the list.
- System: HPPD polypeptides (wild-type SEQ ID NO:1 and mutants)
- condition-label: kapp in presence of 50 μM Cmpd. 1, normalised to kapp without inhibitor; low substrate concentration
Give your result in % as a bare value.

// Residual activity lookup, molecule = 72 (protein, mutant HPPD polypeptide) MADLYENPMGLMGFEFIEFASPTPGTLEPIFEIMGFTKVATHRSKNVHLYRQGEINLILNNEPNSIASYFAAEHGPSVCGMAFRVKDSQKAYNRALELGAQPIHIDTGPMELNLPAIKGIGGAPLYLIDRFGEGSSIYDIDFVYLEGVERNPVGAGLKVIDHLTHNVYRGRMVYWANFYEKLFNFREARYFDIKGEYTGLTSKAMSAPDGMIRIPLNEESSKGAGQIEEFLMQFNGEGIQHVAFLTDDLVKTWDALKKIGMRFMTAPRDEYYEMLEGRLPDHGEPVDQLQARGILLDGSSVEGDKRLLLQIFSETLMGPVFFEFIQRKGDDGFGPDSFKVLFESVERDQVRRGVLTAD , result: 25

// Residual activity lookup, molecule = 88 (protein, mutant HPPD polypeptide) MADLYENPMGLMGFEFIEFASPTPGTLEPIFEIMGFTKVATHRSKNVHLYRQGEINLILNNEPNSIASYFAAEHGPSVCGMAFRVKDSQKAYNRALELGAQPIHIDTGPMELNLPAIKGIGGAPLYLIDRFGEGSSIYDIDFVYLEGVERNPVGAGLKVIDHLTHNVYRGRMVYWANFYEKLFNFREARYFDIKGEYTGLTSKAMSAPDGMIRIPLNEESSKGAGQIEEFLMQFNGEGIQHVAFLTDDLVKTWDALKKIGMRFMTAPGDEYYEMLEGRLPDHGEPVDQLQARGILLDGSSVEGDKRLLLQIFSETLMGPVFFEFIQRKGDDGFGPDSFKVLFESIERDQVRRGVLTAD , result: 20

// Residual activity lookup, molecule = 31 (protein, mutant HPPD polypeptide) MADLYENPMGLMGFEFIEFASPTPGTLEPIFEIMGFTKVATHRSKNVHLYRQGEINLILNNEPNSIASYFAAEHGPSVCGMAFRVKDSQKAYNRALELGAQPIHIDTGPMELNLPAIKGIGGAPLYLIDRFGEGSSIYDIDFVYLEGVERNPVGAGLKVIDHLTHNVYRGRMVYWANFYEKLFNFREARYFDIKGEYTGLTSKAMSAPDGMIRIPLNEESSKGAGQIEEFLMQFNGEGIQHVAFLTDDLVKTWDALKKIGMRFMTAPGDEYYEMLEGRLPDHGEPVDQLQARGILLDGSSVEGDKRLLLQIFSETLMGPVFFEFIQRKGDDGFGPHSFKVLFESVERDQVRRGVLTAD , result: 50

// Residual activity lookup, molecule = 77 (protein, mutant HPPD polypeptide) MADLYENPMGLMGFEFIEFASPTPGTLEPIFEIMGFTKVATHRSKNVHLYRQGEINLILNNEPNSIASYFAAEHGPSVCGMAFRVKDSQKAYNRALELGAQPIHIDTGPMELNLPAIKGIGGAPLYLIDRFGEGSSIYDIDFVYLEGVERNPVGAGLKVIDHLTHNVYRGRMVYWANFYEKLFNFREARYFDIKGEYTGLTSKAMSAPDGMIRIPLNEESSKGAGQIEEFLMQFNGEGIQHVAFLTDDLVKTWDALKKIGMRFMTAPGDSYYEMLEGRLPDHGEPVDQLQARGILLDGSSVEGDKRLLLQIFSETLMGPVFFEFIQRKGDDGFGPDSFKVLFESVERDQVRRGVLTAD , result: 19
